Attribute: phosphorylation enrichment
Target: Hck (UniProt P08631)
Sequence (P08631 whole entry, looked up): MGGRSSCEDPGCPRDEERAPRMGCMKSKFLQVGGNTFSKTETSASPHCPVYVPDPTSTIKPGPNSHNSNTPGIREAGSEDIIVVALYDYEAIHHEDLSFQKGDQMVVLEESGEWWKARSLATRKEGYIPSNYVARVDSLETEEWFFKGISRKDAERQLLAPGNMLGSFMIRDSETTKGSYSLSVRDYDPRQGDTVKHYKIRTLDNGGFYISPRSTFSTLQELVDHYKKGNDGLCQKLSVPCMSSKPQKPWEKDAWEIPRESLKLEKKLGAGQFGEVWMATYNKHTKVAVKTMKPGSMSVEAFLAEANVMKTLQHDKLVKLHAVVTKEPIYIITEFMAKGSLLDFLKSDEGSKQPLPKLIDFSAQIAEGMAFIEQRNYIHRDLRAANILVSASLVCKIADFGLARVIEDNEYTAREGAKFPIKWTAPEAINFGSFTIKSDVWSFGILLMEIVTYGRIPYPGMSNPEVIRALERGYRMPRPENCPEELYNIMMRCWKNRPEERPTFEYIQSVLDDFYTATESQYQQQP
Experiment: phosphorylation enrichment, bacterial display (enrichment ratio); higher = better substrate or ligand; peptides without Tyr show the background;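 also: 11-residue human phosphosite peptides and single-mutation variants displayed on the E. coli surface, counted by deep sequencing, each peptide's frequency after selection divided by its frequency in the unselected input library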;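 also: frequency after pTyr selection over input frequency; kinase dosed for 20-30% of maximal phosphorylation in three min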
No unit in the answer, only the number.

> print(dat)
                     sequencerecord                 testreadout  quantitativereadout
1  LEISPYMLSGP [LRRK2_Y1718_R1723P]  phosphorylation enrichment                  1.1
2          IPKTWYSAEQF [CD207_Y217]  phosphorylation enrichment                0.542
3     KLKRSYSSRDI [USP8_Y717_P720R]  phosphorylation enrichment                0.327
4      AEQDCYHGAIP [FER_Y461_W460C]  phosphorylation enrichment                0.499
5          QKMLDYLKEKK [RYR2_Y3780]  phosphorylation enrichment                0.491

Incoming: Please tell me: phosphorylation enrichment of RASSSYRETPS [SORBS1_Y79] , system Hck (UniProt P08631)?
Outgoing: 0.502

Incoming: Another sequence: FGSIMYEFVGK [SLC18A1_Y251_V249I]
Outgoing: 5.05

Incoming: Same read-out for TQIGQYGNGLK [MORC2_Y100] ?
Outgoing: 0.421

Incoming: Try this sequence too: CRERPYGGGGG [FUS_Y526_R521C]
Outgoing: 0.481

Incoming: Then KFVVVYFRETD [IL17RB_Y447_I451T_YF] ?
Outgoing: 0.57

Incoming: Note, next up: KDQGGYAMHQD [MAPT_Y29_T30A]
Outgoing: 0.471

Incoming: Further, for RIVRKYKKVRF [F8_Y442_G439V] ?
Outgoing: 0.547

Incoming: Please do the same for TGSFTCEAVEL [MTMR14_Y462_Y462C] as well.
Outgoing: 0.573

Incoming: And for QGGRRYMMIVD [GAA_Y438] ?
Outgoing: 0.354

Incoming: Another sequence to look at: ASFSLYEPAKM [MKI67_Y340_P338S]
Outgoing: 3.48
